Reported combination Emax is given for each of the following molecules.
System: PL4 (Pancreatic Carcinoma)
method.summary: combination Emax (second highest fraction inhibited in the dose matrix, 72 h); higher = more inhibition; extreme values may be limits of the assay

>>> assay_result("CC(=O)c1c(C)c2cnc(Nc3ccc(N4CCNCC4)cn3)nc2n(C2CCCC2)c1=O [Palbociclib] + Cn1cnc2c(F)c(Nc3ccc(Br)cc3Cl)c(C(=O)NOCCO)cc21 [Selumetinib] (first compound max 10 µM, 7x7, partner max 10 µM)")
0.523

Read the next record carefully.
Enquiry: Quick check: combination Emax on PL4 (Pancreatic Carcinoma), item CC1(C)CCC(CN2CCN(c3ccc(C(=O)NS(=O)(=O)c4ccc(NCC5CCOCC5)c([N+](=O)[O-])c4)c(Oc4cnc5[nH]ccc5c4)c3)CC2)=C(c2ccc(Cl)cc2)C1 [Venetoclax] + Cn1cnc2c(F)c(Nc3ccc(Br)cc3Cl)c(C(=O)NOCCO)cc21 [Selumetinib] (first compound max 1 µM, 7x7, partner max 3 µM) ?
Return: 0.443

Every entry's value here was drawn from the supplement of paper PMC11061612.
